targetOfAssay: human Bradykinin B1 receptor (Homo sapiens, UniProt P46663)
Construct: host or cells: CHO-K1
Sequence (P46663 1-353): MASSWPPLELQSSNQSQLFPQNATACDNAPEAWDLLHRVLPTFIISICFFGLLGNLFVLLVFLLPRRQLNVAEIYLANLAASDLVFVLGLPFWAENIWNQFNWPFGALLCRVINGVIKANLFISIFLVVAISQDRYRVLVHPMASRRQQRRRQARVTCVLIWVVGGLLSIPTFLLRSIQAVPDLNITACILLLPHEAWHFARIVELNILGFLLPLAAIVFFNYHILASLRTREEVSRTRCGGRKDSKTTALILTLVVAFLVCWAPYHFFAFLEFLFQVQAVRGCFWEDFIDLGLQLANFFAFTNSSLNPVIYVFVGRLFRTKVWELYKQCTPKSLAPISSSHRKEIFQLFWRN
experiment: Calcium flux Assay (FLIPR) with recombinant CHO-K1 cells expressing human Bradykinin B1 receptor, in presence (hB1 IC50) or absence (hB1 free IC50) of 0.1% BSA
Format: cell-based
conditionInfo: in presence of 0.1% BSA, read-out: hB1 IC50
Provide the recorded log10(IC50) for the entries that follow.
// stored as log10 of IC50 expressed in nM

Answered examples (5):
1) COc1ccc(-c2ccc(NC(=O)C3(C4CCC(C)CC4)CC3)cc2-c2nnn[nH]2)cc1OC (single isomer, unassigned) :: 2.09
2) COc1ccc(-c2ccc(NC(=O)C3(c4cccc(Cl)c4)CC3)cc2-c2nnn[nH]2)cc1Cl :: 2.65
3) COCc1ccc(-c2ccc(NC(=O)C3(c4ccc(C(F)(F)F)cc4)CC3)cc2-c2nnn[nH]2)cn1 :: 1.34
4) CCOc1ncc(-c2ccc(NC(=O)C3(c4ccc(C(F)(F)F)cc4)CC3)cc2-c2nnn[nH]2)cc1C :: 1.40
5) COc1ccc(-c2c(F)cc(NC(=O)C3(c4ccc(C(F)(F)F)cc4)CC3)cc2-c2nnn[nH]2)cc1OC :: 1.27

Lab note: each molecule below needs its log10(IC50) filled in.
1. COc1cncc(-c2ccc(NC(=O)C3(c4cccc(C(F)(F)F)c4)CC3)cc2-c2nnn[nH]2)c1
2. COc1cncc(-c2ccc(NC(=O)C3(c4ccc(F)cc4F)CC3)cc2-c2nnn[nH]2)c1

1.37
1.59
